Please provide measured GI50 for the entries that follow.
Tested on: NCI-H460
Assay: NCI tumour cell line growth inhibition, 48 h
The source made the active and inactive calls. Rule as the data show it: active = GI50 up to about 1.1 µM and inactive = higher.

Recall and state the measured GI50 for N#Cc1c(-c2ccccc2)c2c([nH]c1=O)-c1cc([N+](=O)[O-])ccc1CCC2 .
30.4 µM (inactive)

For the molecule COc1cccc(CCn2c(N)c(C#N)c3ccc([N+](=O)[O-])cc3c2=O)c1 , give its reported GI50.
> 46.5 µM (inactive)

Could you please provide reported GI50 for CC(C)(C)c1cc(C(P(=O)(O)O)P(=O)(O)O)cc(C(C)(C)C)c1O ? Thanks!
> 100 µM (inactive)

Identify measured GI50 associated with COC(=O)/C=C1/OC(c2ccccc2)=CC1=O
19.7 µM (inactive)

Note GI50 for the molecule shown: COc1cccc(/C=C/C(=O)c2sc(C(N)=S)nc2C)c1O
> 76.4 µM (inactive)

For O=C(O)c1cccc(C(=O)O)c1[S+]([O-])Cc1ccccc1 (stereo unspecified) , write its GI50.
> 100 µM (inactive)

Identify GI50 associated with the molecule CCN1CCC(O)(/C=C/c2ccccc2)C(C(=O)/C=C/c2ccccc2)C1 (stereo unspecified)
1.95 µM (inactive)

State its GI50 for this molecule: CC(C)/C(=N\[N+](C)(C)C)c1ccccc1
> 100 µM (inactive)

Give recorded GI50. COc1ccc(C(c2ccc(C(C)C)cc(=O)c2O)c2c(O)cc3oc(-c4ccccc4)cc(=O)c3c2O)cc1 (stereo unspecified)
3.37 µM (inactive)

Indicate its recorded GI50; the molecule in question is O=c1c(Cc2ccccc2Cc2c(O)oc3ccccc3c2=O)c(O)oc2ccccc12
> 100 µM (inactive)

Return GI50 (reported value) for this molecule: ON(CCc1ccccn1)Cc1ccccc1
> 100 µM (inactive)

---

Tested on: NCI-H460
Test: NCI tumour cell line growth inhibition, 48 h
Active and inactive are the calls of the source. No stated cut-off is given here; in the data, active = GI50 up to about 1.1 µM and inactive = higher. Peptide text beside a SMILES is read from it. * marks the point of attachment. Boc = CC(C)(C)OC(=O)*; OBn = c1ccc(CO*)cc1
Please state which outcome applies, choosing from active, inactive

Could you kindly confirm the outcome this assay logged for C[n+]1c(-c2ccc(/C=N/NC(=O)c3ccc(C(=O)N/N=C/c4ccc(-c5cn6ccccc6[n+]5C)cc4)cc3)cc2)cn2ccccc21 ?
inactive

What classification did O=C(O)C(Cc1cccs1)C(=O)O end up with in this test?
inactive

Dear all, I need the recorded test outcome for CC(SC1=CC(=O)c2c(O)ccc(O)c2C1=O)C(=O)O (stereo not drawn) , thank you.
inactive

Just curious, what result did CN1CCN(c2nc3c(c(=O)n(C)c(=O)n3C)n2C)CC1 get here?
inactive

// return assay outcome for CC12CCC3C(CCC4=CC(O)CCC43C=O)C1(O)CCC2c1ccc(=O)oc1 (stereo not drawn)
active

Could you check what this test reported for COC1/C=C(C)/C=C/C(C)/C=C/C(=O)OC(/C(C)=C/C=C(\C)CNC(=O)[C@H](CO)NC=O)C(C)/C=C/C=C/C(OC)CC/C=C(C)/C=C/C1 (stereo partly drawn) ?
active

Give the logged outcome of this assay for the following molecule: CC(NC(=O)C(NC(=O)OC(C)(C)C)C(C)C)C(=O)N1CCCC1C(=O)NCC(=O)NC(C(=O)NCC(=O)OCc1ccccc1)C(C)C (stereo not drawn) (Boc-VAPGVG-OBn; configuration not given here)
inactive

What was the test verdict on O=C1OC(c2ccccc2Br)=N/C1=C/c1ccccc1 ?
inactive
